Attribution: the supplement of paper PMC6757056

Reported normalized RNA/DNA level with ligand (log10) by item:
B1: library; a variant is named by its letters at N, in order (parent)
chain: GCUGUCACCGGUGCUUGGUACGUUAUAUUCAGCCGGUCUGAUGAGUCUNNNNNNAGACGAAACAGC

variants of: B1; assay: normalized RNA/DNA level with ligand (relative to sTRSVctl = 100) (log10 (% of sTRSVctl)); HEK293T overexpressing SLC46A1; ligand concentration (+) RNA-Seq: 6 mM; higher = less ribozyme self-cleavage, higher mRNA level; conditions: with (6R,S)-folinic acid; ligand present: yes
No unit in the answer, please; the number alone is enough.

See these solved cases before continuing.
Challenge: Give normalized RNA/DNA level with ligand (log10) for the following variant: GCUGUCACCGGUGCUUGGUACGUUAUAUUCAGCCGGUCUGAUGAGUCUGGCGCAAGACGAAACAGC [GGCGCA]
Response given: 2.05

Challenge: Give normalized RNA/DNA level with ligand (log10) for the following variant: GCUGUCACCGGUGCUUGGUACGUUAUAUUCAGCCGGUCUGAUGAGUCUUAAUACAGACGAAACAGC [UAAUAC]
Response given: 1.96

Challenge: Give normalized RNA/DNA level with ligand (log10) for the following variant: GCUGUCACCGGUGCUUGGUACGUUAUAUUCAGCCGGUCUGAUGAGUCUCAGAAGAGACGAAACAGC [CAGAAG]
Response given: 2.02

Challenge: Give normalized RNA/DNA level with ligand (log10) for the following variant: GCUGUCACCGGUGCUUGGUACGUUAUAUUCAGCCGGUCUGAUGAGUCUCCCCUUAGACGAAACAGC [CCCCUU]
Response given: 2.05

Challenge: Give normalized RNA/DNA level with ligand (log10) for the following variant: GCUGUCACCGGUGCUUGGUACGUUAUAUUCAGCCGGUCUGAUGAGUCUCAACCGAGACGAAACAGC [CAACCG]
Response given: 2.04

Challenge: Give normalized RNA/DNA level with ligand (log10) for the following variant: GCUGUCACCGGUGCUUGGUACGUUAUAUUCAGCCGGUCUGAUGAGUCUUUUCUGAGACGAAACAGC [UUUCUG]
Response given: 2

Challenge: Give normalized RNA/DNA level with ligand (log10) for the following variant: GCUGUCACCGGUGCUUGGUACGUUAUAUUCAGCCGGUCUGAUGAGUCUUUCGGUAGACGAAACAGC [UUCGGU]
Response given: 2

Challenge: Give normalized RNA/DNA level with ligand (log10) for the following variant: GCUGUCACCGGUGCUUGGUACGUUAUAUUCAGCCGGUCUGAUGAGUCUCCAGGGAGACGAAACAGC [CCAGGG]
Response given: 2.04

Challenge: Give normalized RNA/DNA level with ligand (log10) for the following variant: GCUGUCACCGGUGCUUGGUACGUUAUAUUCAGCCGGUCUGAUGAGUCUGCGGGAAGACGAAACAGC [GCGGGA]
Response given: 2.06

Challenge: Give normalized RNA/DNA level with ligand (log10) for the following variant: GCUGUCACCGGUGCUUGGUACGUUAUAUUCAGCCGGUCUGAUGAGUCUGUCCCUAGACGAAACAGC [GUCCCU]
Response given: 2.03

Continuing:
Challenge: Give normalized RNA/DNA level with ligand (log10) for the following variant: GCUGUCACCGGUGCUUGGUACGUUAUAUUCAGCCGGUCUGAUGAGUCUCUGGGCAGACGAAACAGC [CUGGGC]
Response given: 2.03

Challenge: Give normalized RNA/DNA level with ligand (log10) for the following variant: GCUGUCACCGGUGCUUGGUACGUUAUAUUCAGCCGGUCUGAUGAGUCUGGAAAUAGACGAAACAGC [GGAAAU]
Response given: 2.04

Challenge: Give normalized RNA/DNA level with ligand (log10) for the following variant: GCUGUCACCGGUGCUUGGUACGUUAUAUUCAGCCGGUCUGAUGAGUCUUAUGGGAGACGAAACAGC [UAUGGG]
Response given: 1.91
